- MEASUREMENT_NOTES: Cytotoxicity against human SPCA2 cells after 48 hrs by MTT assay
- Type: functional, cell-based
- EXPERIMENTAL_SETUP: SPCA2, 48 h
One threshold, 70 µM, splits the recorded IC50 values: lower ones are label 1, equal or higher ones are label 0.

// below: answered compounds
CCOP(=O)(OCC)C(NC(=O)c1cc(O)c2c(c1)C(=O)c1cccc(O)c1C2=O)c1ccccc1 (stereo not given): label 1
CCOP(=O)(OCC)C(NC(=O)c1cc(O)c2c(c1)C(=O)c1cccc(O)c1C2=O)c1ccc(F)cc1 (stereo not given): label 1
CCOP(=O)(OCC)C(NC(=O)c1cc(O)c2c(c1)C(=O)c1cccc(O)c1C2=O)c1ccc(C)cc1 (stereo not given): label 0

Request: # check: IC50 < 70 µM for CCOP(=O)(OCC)C(NC(=O)c1cc(O)c2c(c1)C(=O)c1cccc(O)c1C2=O)c1ccccc1Cl (stereo not given)
Result: label 1

Request: # check: IC50 < 70 µM for CCOP(=O)(OCC)C(NC(=O)c1cc(O)c2c(c1)C(=O)c1cccc(O)c1C2=O)c1cccc(Br)c1 (stereo not given)
Result: label 0

Request: # check: IC50 < 70 µM for CCOP(=O)(OCC)C(NC(=O)c1cc(O)c2c(c1)C(=O)c1cccc(O)c1C2=O)c1ccccc1OC (stereo not given)
Result: label 1

Request: # check: IC50 < 70 µM for CCOP(=O)(OCC)C(NC(=O)c1cc(O)c2c(c1)C(=O)c1cccc(O)c1C2=O)c1ccccc1Br (stereo not given)
Result: label 0

Request: # check: IC50 < 70 µM for CCOP(=O)(OCC)C(NC(=O)c1cc(O)c2c(c1)C(=O)c1cccc(O)c1C2=O)c1ccc(Br)cc1 (stereo not given)
Result: label 0

Request: # check: IC50 < 70 µM for CCOP(=O)(OCC)C(NC(=O)c1cc(O)c2c(c1)C(=O)c1cccc(O)c1C2=O)c1ccccc1F (stereo not given)
Result: label 0

Request: # check: IC50 < 70 µM for CCOP(=O)(OCC)C(NC(=O)c1cc(O)c2c(c1)C(=O)c1cccc(O)c1C2=O)c1cccc(Cl)c1 (stereo not given)
Result: label 0
